Attribute: IC50
# Test system: NCI-H1299
# protocol_text: Antiproliferative activity against human H1299 cells after 48 hrs by MTS assay
# Format: functional, cell-based
# condition_set: NCI-H1299, 48 h
Entry rule: numbers only, all in nM.

{"columns": ["compound", "IC50 [nM]"],
 "data": [
  ["O=S(=O)(Nc1ccc(C2(O)CSC(=S)N2Cc2ccncc2)cc1)c1ccc2c(c1)OCCO2 (centres undefined)", 750]
]}

Input line: State the recorded IC50 for this entry: O=[N+]([O-])c1cccc(-c2ccccc2S(=O)(=O)Nc2ccc(C3(O)CSC(=S)N3Cc3cccnc3)cc2)c1 (centres undefined)
Output line: 2960

Input line: State the recorded IC50 for this entry: O=[N+]([O-])c1ccccc1S(=O)(=O)Nc1ccc(C2(O)CSC(=S)N2Cc2cccnc2)cc1 (centres undefined)
Output line: 1750

Input line: State the recorded IC50 for this entry: Cc1ccc(S(=O)(=O)Nc2ccc(C3(O)CSC(=S)N3Cc3cccnc3)cc2)cc1 (centres undefined)
Output line: 1200

Input line: State the recorded IC50 for this entry: O=S(=O)(Nc1ccc(C2(O)CSC(=S)N2Cc2cccnc2)cc1)c1ccccc1 (centres undefined)
Output line: 1440

====

# assayed_target: Pyruvate kinase PKM (Homo sapiens)
# Sequence (P14618 whole entry): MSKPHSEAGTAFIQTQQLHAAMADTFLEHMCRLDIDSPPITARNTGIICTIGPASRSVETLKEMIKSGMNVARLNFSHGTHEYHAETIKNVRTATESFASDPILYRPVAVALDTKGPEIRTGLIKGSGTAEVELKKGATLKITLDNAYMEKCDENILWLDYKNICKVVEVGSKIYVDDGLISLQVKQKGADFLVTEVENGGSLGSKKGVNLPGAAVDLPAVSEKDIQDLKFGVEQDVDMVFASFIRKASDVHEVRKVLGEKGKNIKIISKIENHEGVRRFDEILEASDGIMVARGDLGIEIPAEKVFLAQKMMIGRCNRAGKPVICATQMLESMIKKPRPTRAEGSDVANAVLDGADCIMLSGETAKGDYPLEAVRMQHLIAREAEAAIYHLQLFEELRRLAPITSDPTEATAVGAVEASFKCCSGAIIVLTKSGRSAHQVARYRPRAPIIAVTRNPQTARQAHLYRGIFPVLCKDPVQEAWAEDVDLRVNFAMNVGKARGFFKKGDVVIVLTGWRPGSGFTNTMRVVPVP
# protocol_text: Activation of N-terminal His -tagged human PKM2 expressed in Escherichia coli BL21 using PEP as substrate measured at 30 secs intervals for between 3 and 6 mins by fluorescent pyruvate kinase-lactate dehydrogenase coupled assay
observed_property: AC50

Reference set (2 entries):
{"columns": ["molecule", "observed_property", "observed_value"],
 "data": [
  ["Cc1cc(C)c(S(=O)(=O)Nc2ccc(C3(O)CSC(=S)N3Cc3cccnc3)cc2)c(C)c1 (stereo unspecified)", "AC50", "> 20 µM"],
  ["O=[N+]([O-])c1ccccc1S(=O)(=O)Nc1ccc(C2(O)CSC(=S)N2Cc2cccnc2)cc1 (stereo unspecified)", "AC50", "> 20 µM"]
]}

Input line: State the recorded AC50 for this entry: Cc1ccncc1CN1C(=S)SCC1(O)c1ccc(NS(=O)(=O)c2ccc3c(c2)OCCO3)cc1 (stereo unspecified)
Output line: > 20 µM

Input line: State the recorded AC50 for this entry: COc1ccc(S(=O)(=O)Nc2ccc(C3(O)CSC(=S)N3Cc3cccnc3)cc2)cc1 (stereo unspecified)
Output line: 4.69 µM

Input line: State the recorded AC50 for this entry: COc1cccc(S(=O)(=O)Nc2ccc(C3(O)CSC(=S)N3Cc3cccnc3)cc2)c1 (stereo unspecified)
Output line: 5.95 µM

Input line: State the recorded AC50 for this entry: O=S(=O)(Nc1ccc(C2(O)CSC(=S)N2Cc2cccnc2)cc1)c1cccc(F)c1 (stereo unspecified)
Output line: > 20 µM

====

Attribute: IC50
# Test system: NCI-H1299
# protocol_text: Antiproliferative activity against human H1299 cells after 48 hrs by MTS assay
# Type: functional, cell-based
# condition_set: NCI-H1299, 48 h
Entry rule: numbers only, all in nM.

Reference set (3 entries):
{"columns": ["compound", "assayed_target", "display_unit", "IC50"],
 "data": [
  ["CS(=O)(=O)Nc1ccc(C2(O)CSC(=S)N2Cc2cccnc2)cc1 (centres undefined)", "NCI-H1299", "nM", 1250],
  ["COc1ccc(Cl)cc1S(=O)(=O)Nc1ccc(C2(O)CSC(=S)N2Cc2cccnc2)cc1 (centres undefined)", "NCI-H1299", "nM", 1620],
  ["O=S(=O)(Nc1ccc(C2(O)CSC(=S)N2Cc2cccnc2)cc1)c1cccc2cccnc12 (centres undefined)", "NCI-H1299", "nM", 2430]
]}

Input line: State the recorded IC50 for this entry: O=S(=O)(Nc1ccc(C2(O)CSC(=S)N2Cc2cccnc2)cc1)c1ccccc1-c1ccccc1 (centres undefined)
Output line: 2700

Input line: State the recorded IC50 for this entry: O=S(=O)(Nc1ccc(C2(O)CSC(=S)N2Cc2cccnc2)cc1)c1ccc2c(c1)OCCO2 (centres undefined)
Output line: 690

Input line: State the recorded IC50 for this entry: O=C1COc2ccc(S(=O)(=O)Nc3ccc(C4(O)CSC(=S)N4Cc4cccnc4)cc3)cc2N1 (centres undefined)
Output line: 2120

Input line: State the recorded IC50 for this entry: O=S(=O)(Nc1ccc(C2(O)CSC(=S)N2Cc2cccnc2)cc1)c1cccs1 (centres undefined)
Output line: 1230

Input line: State the recorded IC50 for this entry: COc1cccc(S(=O)(=O)Nc2ccc(C3(O)CSC(=S)N3Cc3cccnc3)cc2)c1 (centres undefined)
Output line: 930

Input line: State the recorded IC50 for this entry: O=S(=O)(Nc1ccc(C2(O)CSC(=S)N2CCc2cccnc2)cc1)c1ccc2c(c1)OCCO2 (centres undefined)
Output line: 1280

====

# Tested on: NCI-H1299
# protocol_text: Antiproliferative activity against human H1299 cells after 48 hrs by MTS assay
# Type: functional, cell-based
# condition_set: NCI-H1299, 48 h
Attribute: IC50

Input line: Field: IC50 (NCI-H1299). Entry: COc1ccc(S(=O)(=O)Nc2ccc(C3(O)CSC(=S)N3Cc3cccnc3)cc2)cc1 (stereo not given)
Output line: 960 nM

Input line: Field: IC50 (NCI-H1299). Entry: O=S(=O)(Nc1ccc(C2(O)CSC(=S)N2Cc2cccnc2)cc1)c1ccccc1F (stereo not given)
Output line: 1450 nM

Input line: Field: IC50 (NCI-H1299). Entry: O=S(=O)(Nc1ccc(C2(O)CSC(=S)N2Cc2cccnc2)cc1)c1ccc(F)cc1 (stereo not given)
Output line: 1310 nM

Input line: Field: IC50 (NCI-H1299). Entry: O=S(=O)(Nc1ccc(-c2csc(=S)n2Cc2cccnc2)cc1)c1cccc2cccnc12
Output line: > 20000 nM

Input line: Field: IC50 (NCI-H1299). Entry: O=C1CCc2cc(S(=O)(=O)Nc3ccc(C4(O)CSC(=S)N4Cc4cccnc4)cc3)ccc2N1 (stereo not given)
Output line: 1650 nM

Input line: Field: IC50 (NCI-H1299). Entry: CS(=O)(=O)c1cccc(-c2ccc(CN3C(=S)SCC3(O)c3ccc(NS(=O)(=O)c4ccc5c(c4)OCCO5)cc3)cn2)c1 (stereo not given)
Output line: 1020 nM

Input line: Field: IC50 (NCI-H1299). Entry: Cc1cccc(S(=O)(=O)Nc2ccc(C3(O)CSC(=S)N3Cc3cccnc3)cc2)c1 (stereo not given)
Output line: 1680 nM

Input line: Field: IC50 (NCI-H1299). Entry: O=S(=O)(Cc1ccccc1)Nc1ccc(C2(O)CSC(=S)N2Cc2cccnc2)cc1 (stereo not given)
Output line: 1550 nM

====

# Test system: NCI-H1299
# protocol_text: Antiproliferative activity against human H1299 cells after 48 hrs by MTS assay
# Format: functional, cell-based
# condition_set: NCI-H1299, 48 h
Attribute: pIC50
FYI, pIC50 means -log10 of a concentration in mol per litre.

Reference set (5 entries):
{"columns": ["molecule", "observed_value"],
 "data": [
  ["CN(c1ccc(C2(O)CSC(=S)N2Cc2cccnc2)cc1)S(=O)(=O)c1cccc2cccnc12 (configuration not stated)", 5.61],
  ["O=S(=O)(Nc1ccc(C2(O)CSC(=S)N2Cc2cccnc2)cc1)c1c[nH]c2ncccc12 (configuration not stated)", 5.70],
  ["Cc1ccncc1CN1C(=S)SCC1(O)c1ccc(NS(=O)(=O)c2ccc3c(c2)OCCO3)cc1 (configuration not stated)", 6.29],
  ["O=S(=O)(Nc1ccc(C2(O)CSC(=S)N2Cc2cnc3ccccc3c2)cc1)c1ccc2c(c1)OCCO2 (configuration not stated)", 5.74],
  ["O=[N+]([O-])c1ccc(S(=O)(=O)Nc2ccc(C3(O)CSC(=S)N3Cc3cccnc3)cc2)cc1 (configuration not stated)", 5.91]
]}

Input line: State the recorded pIC50 for this entry: O=S(=O)(Nc1ccc(C2(O)CSC(=S)N2Cc2ccc3nccn3c2)cc1)c1ccc2c(c1)OCCO2 (configuration not stated)
Output line: 6.10

Input line: State the recorded pIC50 for this entry: O=S(=O)(Nc1ccc(C2(O)CSC(=S)N2Cc2cccnc2)cc1)c1ccccc1N1CCOCC1 (configuration not stated)
Output line: 5.91
